Test system: NCI-H596
Test: 5-day viability assay
Assay type: cell-based
Settings: Homo sapiens, 120 h, NCI-H596 (NSCLC, MET Exon 14), two independent experiments
Quantity Name: IC50 (nM)
Give your result in nM as a bare value.

q: Sample Cc1cccc(/C=N/Nc2cc(N3CCOCC3)nc(OCCc3ccccn3)n2)c1 — what was its IC50?
a: 304

###

Tested on: NCI-H2023
Assay: 5-day viability assay
Format: cell-based
Settings: 120 h, NCI-H2023 (NSCLC, Autocrine), two independent experiments
Quantity Name: pIC50
Friendly reminder that pIC50 comes from taking -log10 of the concentration in mol/L.

q: Sample Cc1cccc(/C=N/Nc2cc(N3CCOCC3)nc(OCCc3ccccn3)n2)c1 — what was its pIC50?
a: 7.14

###

Test system: DLD1
Experiment: 5-day CellTiter-Glo viability sensitivity screen
Assay type: cell-based
Settings: Homo sapiens, DLD-1, 120 h; DLD1 colorectal (KRAS p.G13D); 5-day viability assays; read-out: IC50 (sensitive/resistant cut-off)
Quantity Name: IC50

q: Sample Cc1cccc(/C=N/Nc2cc(N3CCOCC3)nc(OCCc3ccccn3)n2)c1 — what was its IC50?
a: < 200 nM

###

Tested on: HCT-15
Experiment: CellTiter-Glo cell viability, single agent and combination (Chou-Talalay CI)
Assay type: cell-based
Conditions: Homo sapiens, HCT-15, 120 h, HCT-15 (colorectal, KRAS G13D), average of two independent experiments
Quantity Name: IC50 (µM)
Give your result in µM as a bare value.

q: Sample CNC(=O)c1cc(Oc2ccc(NC(=O)Nc3ccc(Cl)c(C(F)(F)F)c3)c(F)c2)ccn1 — what was its IC50?
a: 7.05

###

System: NCI-H2122
Test: CellTiter-Glo cell viability, single agent and combination (Chou-Talalay CI)
Conditions: Homo sapiens, NCI-H2122, 120 h, read-out: IC50 (single agent)
Quantity Name: IC50

q: Sample Cc1cccc(/C=N/Nc2cc(N3CCOCC3)nc(OCCc3ccccn3)n2)c1 — what was its IC50?
a: > 400 nM

###

System: COLO-205
Test: 5-day CellTiter-Glo viability sensitivity screen
Type: cell-based
Conditions: Homo sapiens, 120 h; COLO-205 colorectal; 5-day viability assays; read-out: IC50 (sensitive/resistant cut-off)
pIC50: −log10 of the molar value.
Quantity Name: pIC50

q: Sample Cc1cccc(/C=N/Nc2cc(N3CCOCC3)nc(OCCc3ccccn3)n2)c1 [apilimod] — what was its pIC50?
a: > 6.70

###

Test system: NCI-H2030
Test: CellTiter-Glo cell viability, single agent and combination (Chou-Talalay CI)
Details: Homo sapiens, NCI-H2030, 120 h, read-out: IC50 (single agent)
Quantity Name: IC50 (nM)
Give your result in nM as a bare value.

q: Sample Cc1cccc(/C=N/Nc2cc(N3CCOCC3)nc(OCCc3ccccn3)n2)c1 — what was its IC50?
a: 228
